System: HOP-62
EXPERIMENT DESCRIPTION: NCI tumour cell line growth inhibition, 48 h
The source made the active and inactive calls. No stated cut-off is given here; in the data, active = GI50 up to about 1.1 µM and inactive = higher.
MEASUREMENT NAME: GI50

{"COMPOUND": "CC1=C(Oc2ccccc2)C(CCC(=O)O)c2c(O)cc(Cl)c(O)c21 (centres undefined)", "GI50": "> 100 µM (inactive)"}
{"COMPOUND": "Nc1nc(Cl)c2ncn(Cc3ccccc3CCl)c2n1", "GI50": "21.6 µM (inactive)"}
{"COMPOUND": "Cc1ccc(S(=O)(=O)c2c(O)c3ccccc3n(C)c2=O)cc1", "GI50": "> 100 µM (inactive)"}
{"COMPOUND": "CN(C)/C=C(\\C(=O)c1ccccc1)n1nc(-c2ccccc2)cc1-c1ccccc1", "GI50": "> 10 µM (inactive)"}
{"COMPOUND": "CC(C)(C)OC(=O)NC(Cc1ccc(OCc2ccccc2)cn1)C(=O)O (centres undefined)", "GI50": "> 100 µM (inactive)"}
{"COMPOUND": "O=c1[nH]c(=S)[nH]c(-c2ccccc2)c1Cc1c(O)ccc2ccccc12", "GI50": "64 µM (inactive)"}
{"COMPOUND": "C=C(Cl)C(C)(Cl)CCC(Cl)C(C)C (centres undefined)", "GI50": "> 100 µM (inactive)"}
{"COMPOUND": "CCc1ccc(Nc2cc(=O)n(C)c(SCc3ccccc3)n2)cc1", "GI50": "69.3 µM (inactive)"}

## Input Give its GI50 value. Item: Cn1cc(S(=O)(=O)NC(=O)Nc2ccc(Cl)cc2)c(=O)c2ccc(Cl)cc21
## Output > 100 µM (inactive)

## Input Give its GI50 value. Item: COC(=O)c1cc2c3c(ccc2[nH]1)N(C(=O)c1cc2cc(OC)c(OC)c(OC)c2[nH]1)CC3CCl (centres undefined)
## Output > 21.8 µM (inactive)
